- Procedure Text: human hepatoma cell viability loss – ATP luminescence, cytotoxicity control for P. falciparum antimalarial project, primary screen (AID 2303);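 further: 0% = DMSO wells and 100% = digitonin-killed cells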
- Assay Conditions: HepG2 viability, 24-48 h, at 10 µM
Active and inactive are the calls of the source.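 How the source made its calls: active means inhibition above 50%; inactive means the rest.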
Response enum: 1.0 for active, 0.0 for inactive

Before answering, review these 2 worked examples.
Cc1ccc2ncc(Cl)c(CCN3CCC(NCc4ccc5c(n4)NC(=O)CS5)CC3)c2n1: 0.0
COc1ccc(CN2CCCN(Cc3cccc(C(=O)Nc4ccc(C)c(F)c4)c3)CC2)cc1: 0.0

Query string: Which outcome did this test record for the compound OC(CNC1CCCCC1)Cn1c2ccccc2c2ccccc21 (centres undefined) ?
Result string: 0.0

Query string: Record lookup: outcome of this test for CCOc1ccccc1CNc1nccc(NCc2ccccc2OC)n1 ?
Result string: 1.0

---

- Procedure Text: antimalarial activity against Dd2 strain (AID 2302);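 further: 0% = DMSO untreated growth and 100% = chloroquine plus artemisinin killed control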
- Assay Conditions: P. falciparum Dd2 in RBCs, LDH growth readout, 72 h; at 2 µM; active compounds read high
Assign 1.0 to entries whose growth inhibition meets or exceeds 70%; assign 0.0 to the rest.

O=C(CCc1cnc[nH]1)Nc1ccc(-c2ccc(-c3nc4ccc(F)cc4[nH]3)cc2)cc1: 0.0

Query string: Textbook exercise: given the entry CCN(CC)CCN(Cc1ccc(-c2ccc(C(F)(F)F)cc2)cc1)C(=O)c1c[nH]c2ccc(Br)cc12 , state whether its growth inhibition is greater than or equal to 70%.
Result string: 1.0

Query string: Please indicate if the recorded growth inhibition for O=C(NCCCCCN1CCCN(C(=O)Nc2ccc(Cl)c(C(F)(F)F)c2)CC1)[C@@H]1C[C@H]1c1ccc(Cl)c(Cl)c1 meets or exceeds 70%.
Result string: 0.0

Query string: Dear colleague, could you confirm whether CN(C)c1ccc(-c2ccc(C(=O)NC3CCN(Cc4ccccc4F)CC3)s2)cc1 has growth inhibition at or above 70%?
Result string: 0.0

Query string: Form field: growth inhibition at least 70%? Entry: COc1ccc2nccc([C@@H](O)CN3CCC(c4cc(-c5ccc(Cl)cc5)n[nH]4)CC3)c2n1
Result string: 0.0

Query string: Does the reported growth inhibition for CS(=O)(=O)c1ccc(Nc2ncc(-c3ccc(S(C)(=O)=O)cc3)c(OCC(F)(F)F)n2)cc1 fall at or above the 70% mark?
Result string: 1.0

Query string: hey, is growth inhibition for this one >= 70%? O=C(Nc1cccnc1)c1cn(-c2ccccc2)nc1-c1cccs1
Result string: 0.0

Query string: Does the compound Cc1ccc(Cn2ncc(N3CCCNCC3)c(Cl)c2=O)cc1NC(=O)Nc1ccc(-c2ccccc2)cc1 have recorded growth inhibition that is 70% or more?
Result string: 0.0

Query string: Does the compound Cc1cc(NN=Cc2ccc(Cl)cc2)c2cc(F)ccc2n1 have recorded growth inhibition that is 70% or more?
Result string: 1.0

---

- Procedure Text: antimalarial activity against Dd2 strain (AID 2302);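 further: 0% = DMSO untreated growth and 100% = chloroquine plus artemisinin killed control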
- Assay Conditions: P. falciparum Dd2 in RBCs, LDH growth readout, 72 h; at 2 µM
Calls of active or inactive are those of the source.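 The calls were made as follows: active = growth inhibition above 50% at the single 2 µM test dose, taken to imply half-maximal potency below 2 µM; inactive = the rest.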
The reply should name one outcome from active, inactive

Query string: Given OC(CNC1CCCCC1)Cn1c2ccccc2c2ccccc21 (centres undefined) , state the outcome it received in this test.
Result string: active

Query string: // outcome(item) with item = Cc1ccc(F)cc1S(=O)(=O)N1CCCCC(c2ccc(C(F)(F)F)cc2)=N1
Result string: active

Query string: I would be grateful if you could indicate the recorded call for Cc1sc(NC(=O)Cc2cccc(C(F)(F)F)c2)nc1-c1cccc(Cl)c1 .
Result string: active

Query string: Which result was noted for this compound in the test: CC1(C)N=C(N)N=C(N)N1OCCCOc1cccc2ccccc12
Result string: active

---

- Procedure Text: antimalarial activity against Dd2 strain (AID 2302);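 further: 0% = DMSO untreated growth and 100% = chloroquine plus artemisinin killed control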
- Assay Conditions: P. falciparum Dd2 in RBCs, LDH growth readout, 72 h; at 2 µM
Calls of active or inactive are those of the source.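 Rule for the calls: active = growth inhibition above 50% at the single 2 µM test dose, taken to imply half-maximal potency below 2 µM; inactive = the rest.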
// allowed return values: active, inactive

Some solved entries appear below for comparison.
O=C(/C=C/c1ccccc1)N1CCOC(CCN2CCC(c3ccccc3)CC2)(c2ccc(Cl)c(Cl)c2)C1 (stereo not drawn): active
CCCN(CC1CC1)c1ncc(-c2cccc(CNCc3ccccc3O)c2)cn1: active
COc1ccc(CNCc2cccc(-c3cccc(-c4nc5ccc(C(F)(F)F)cc5[nH]4)c3)c2)cc1: active
O=C(NC1CCN(c2ncc(C(F)(F)F)cc2Cl)CC1)c1cccs1: active
CN1CCN(c2nc(NCCNc3ccc([N+](=O)[O-])cc3)c3ccccc3n2)CC1: inactive

Now take the following molecule into account.
Query string: What call does the record list for Nc1nc(N)c2c(ccc3c2ccn3Cc2ccc(-c3ccccc3)cc2)n1 ?
Result string: active

---

Reported growth inhibition values for the following compounds.
- Procedure Text: antimalarial activity against Dd2 strain (AID 2302);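 further: 0% = DMSO untreated growth and 100% = chloroquine plus artemisinin killed control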
- Assay Conditions: P. falciparum Dd2 in RBCs, LDH growth readout, 72 h; at 2 µM; active compounds read high
A number alone suffices; assume %.

These solved cases illustrate the format of a correct answer.
COc1ccc(C(c2ccc(N(C)C)cc2)c2ccc(N(C)C)cc2)cc1: 99
O=c1cc(NCCCNCc2cc(Cl)cc(Cl)c2OCc2ccc(Cl)cc2)[nH]c2ccccc12: 53
CCOc1ccc(C(Cc2ccccc2)NC(=O)c2cccnc2)cc1OCC (centres undefined): 98
Oc1ccc(Nc2nc(N3CCCC3)c3ccccc3n2)cc1: 100
O=C(Nc1ccc(OC2CCN(Cc3ccsc3)CC2)c(Cl)c1)c1cccs1: 93

Query string: Using the record for CCNc1cc(C(=O)N[C@@H](Cc2ccccc2)[C@H](O)CNC2CCC(C)(C)C2)cc(N2CCCCS2(=O)=O)c1 (some centres undefined) , report its growth inhibition.
Result string: 98

Query string: What growth inhibition value was documented for this compound, CCNc1cc(C(=O)N[C@@H](Cc2ccco2)[C@H](O)CNC2CCCCC2)cc(N2CCCCS2(=O)=O)c1 ?
Result string: 57

Query string: # lookup: growth inhibition of Cc1c(F)cc(C(=O)NC2CC2)cc1-c1ccc2c(c1)c(C)nn2S(=O)(=O)c1cccs1
Result string: 92

Query string: Would you kindly share the measured growth inhibition for O=C(Nc1cccc(CN2CCN(Cc3cccc(O)c3)CC2)c1)c1ccc(Cl)c(Cl)c1 ?
Result string: 35

---

- Procedure Text: inhibition of 3D7 malaria parasite growth – strain 3D7 (AID 2306);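 further: 0% = DMSO wells and 100% = chloroquine plus artemisinin control wells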
- Assay Conditions: P. falciparum 3D7 erythrocytic growth, LDH absorbance, 72 h; at 2 µM; active compounds read high
Observation Type: growth inhibition (%)
# number only, unit % dropped from output

CC(C)c1ccc(NC(=O)NCC2CCCN(CCCCCNC(=O)/C=C/c3ccc(Cl)c(Cl)c3)C2)cc1 (centres undefined): 98
O=C(Nc1ccc(Cl)cc1)c1cc(Cl)ccc1NC(=O)C1(c2ccc(Cl)cc2)CCCC1: 85
COc1ccccc1/C=C/C(=O)NCCC1CCN(CCCCCNC(=O)/C=C/c2ccc(Cl)c(Cl)c2)CC1: 94

// next item, growth inhibition requested
Query string: GET /values?readout=growth inhibition&item= O=C(NCC1CCC(C(=O)NCc2cccc3ccccc23)CC1)c1ccc(O)c(-c2ccc(Cl)c(Cl)c2)c1 (centres undefined)
Result string: 100

---

- Procedure Text: inhibition of 3D7 malaria parasite growth – strain 3D7 (AID 2306);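 further: 0% = DMSO wells and 100% = chloroquine plus artemisinin control wells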
- Assay Conditions: P. falciparum 3D7 erythrocytic growth, LDH absorbance, 72 h; at 2 µM; active compounds read high
Observation Type: growth inhibition (%)
Field: numeric (%). Do not append units.

Clc1cnc2ccc3c(c2c1CCN1CCC(NCc2cc4c(cn2)OCCO4)CC1)OCCO3: 92
Cc1cc(N2CCCC2)nc(Nc2ccc(NC(=O)C(C)(C)C)cc2)n1: 95
CCN1CCCC1CN(Cc1ccc(-c2ccc(C(F)(F)F)cc2)cc1)C(=O)Cn1c(CCc2cccc(F)c2F)nc(=O)c2ccccc21 (centres undefined): 94
CCC(NCc1ccc(-c2cncc(C(=O)NCC(C)C)c2)cc1)c1ccccc1 (centres undefined): 86
COc1cccc(-c2ccc(NC(=O)C3CCCN(Cc4cccc(OC)c4O)C3)cc2)c1 (centres undefined): 98
O=C1C(C2CCC(c3ccc(Cl)cc3)CC2)=C2OCC3COC2(O3)c2ccccc21 (centres undefined): 98
C(=NNc1ccnc2ccccc12)c1ccncc1: 95
COCCn1c(-c2cccc(Cl)c2)nn(-c2ccc([N+](=O)[O-])cc2Cl)c1=S: 100

Query string: Need growth inhibition, item COc1cccc(C(=O)N2CCOC(CCN3CCC(c4ccccc4)CC3)(c3ccc(Cl)c(Cl)c3)C2)c1 (centres undefined)
Result string: 87

Query string: I am curious: what growth inhibition value has been reported for NC(N)=Nc1nc(CCCCCCCCc2csc(N=C(N)N)n2)cs1 ?
Result string: 100

Query string: What value of measured growth inhibition is listed for CN(CCCCNC(=O)c1cc2ccccc2[nH]1)C1CC2(CCN(C(=O)OC(C)(C)C)CC2)c2ccccc21 (centres undefined) ?
Result string: 86

Query string: Item Cc1[nH]cc(Br)c(=O)c1-c1ccc(Oc2ccc(OC(F)(F)F)cc2)cc1 has what recorded growth inhibition?
Result string: 96

Query string: Endpoint output: growth inhibition of Cc1ccccc1CCNC(=O)c1cnc(N2CCN(c3ccncc3)CC2)c(Cl)c1 . Value?
Result string: 100

Query string: Consider the compound shown here: O=C(NCCc1ccc(F)cc1)c1ccc(N2CCN(c3ccncc3)CC2)nc1 What is its recorded growth inhibition?
Result string: 88

Query string: Endpoint output: growth inhibition of CCc1cccc(NC(=O)c2ccc(CN3CCCN(CC4CCCCC4)CC3)cc2)c1 . Value?
Result string: 84

Query string: Please report the recorded growth inhibition for CC1(C)CN(CCC2CCC(NC(=O)/C=C/c3ccc(F)cc3F)CC2)Cc2ccc(C#N)cc21 (centres undefined) .
Result string: 88

Query string: growth inhibition lookup needed for FC(F)(F)c1ccc2nc(-c3cccc(-c4cccc(CN5CCN(c6ccncc6)CC5)c4)c3)[nH]c2c1 , thanks.
Result string: 100
